- protocolNotes: Oral bioavailability in rat
- Format: ADME, organism-based
- conditionSet: in vivo
measurementKind: bioavailability (%)
The reply should contain only the number, in %.

Documented bioavailability of Cc1ccc(NC(=O)C2(c3ccc4c(c3)OC(F)(F)O4)CC2)nc1-c1cccc(C(=O)O)c1 : 30

Documented bioavailability of Cc1nn(C)cc1S(=O)(=O)NC(=O)c1ccc(-n2ccc(OCC(C)(C)C(F)(F)F)n2)nc1N1C[C@@H](C)CC1(C)C : 83

Documented bioavailability of Cc1nn(C)cc1S(=O)(=O)NC(=O)c1ccc(-n2ccc(OCC3(C(F)(F)F)CCC3)n2)nc1N1C[C@@H](C)CC1(C)C : 66

Documented bioavailability of O=C(Nc1ncc(Cc2ccccc2Cl)s1)C(c1ccccc1)c1ccccc1 : 30

Documented bioavailability of Cc1nn(C)cc1S(=O)(=O)NC(=O)c1ccc(-n2ccc(OCCC3(C(F)(F)F)CC3)n2)nc1N1C[C@@H](C)CC1(C)C : 65

###

- measuredTarget: PXR (nuclear receptor subfamily 1 group I member 2) (Homo sapiens)
- Sequence (O75469 whole entry): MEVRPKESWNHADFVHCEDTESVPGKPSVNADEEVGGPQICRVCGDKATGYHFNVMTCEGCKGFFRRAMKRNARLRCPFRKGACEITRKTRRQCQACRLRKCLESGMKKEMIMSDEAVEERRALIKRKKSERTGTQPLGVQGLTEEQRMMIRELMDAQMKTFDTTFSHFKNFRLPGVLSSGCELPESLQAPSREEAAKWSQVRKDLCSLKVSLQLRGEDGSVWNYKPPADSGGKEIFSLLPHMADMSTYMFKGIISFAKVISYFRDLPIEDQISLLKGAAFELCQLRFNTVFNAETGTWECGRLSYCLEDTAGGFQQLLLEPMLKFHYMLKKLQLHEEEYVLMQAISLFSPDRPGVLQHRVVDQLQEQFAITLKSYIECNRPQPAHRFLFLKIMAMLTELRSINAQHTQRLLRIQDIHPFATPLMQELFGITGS
- protocolNotes: Activation of PXR (unknown origin) at 10 uM relative to control
- conditionSet: read-out: Activity
Answer each item with its documented activity at 10 µM.
The reply should contain only the number, in %.

Documented activity at 10 µM of Cc1nn(C)cc1S(=O)(=O)NC(=O)c1ccc(-n2ccc(OCC3(C(F)(F)F)CCC3)n2)nc1N1C[C@@H](C)CC1(C)C : 3

Documented activity at 10 µM of Cc1c(S(=O)(=O)NC(=O)c2ccc(-n3ccc(OCC(C)(C)C(F)(F)F)n3)nc2N2C[C@@H](C)CC2(C)C)cnn1C : 3

Documented activity at 10 µM of Cc1nn(C)cc1S(=O)(=O)NC(=O)c1ccc(-n2ccc(OCC(C)(C)C(F)(F)F)n2)nc1N1C[C@@H](C)CC1(C)C : 2

Documented activity at 10 µM of Cc1nn(C)cc1S(=O)(=O)NC(=O)c1ccc(-n2ccc(OCC3(C(F)(F)F)CC3)n2)nc1N1C[C@@H](C)CC1(C)C : 4

Documented activity at 10 µM of Cc1nn(C)cc1S(=O)(=O)NC(=O)c1ccc(-n2ccc(OCCC3(C(F)(F)F)CC3)n2)nc1N1C[C@@H](C)CC1(C)C : 4

Documented activity at 10 µM of Cc1nn(C)c(C)c1S(=O)(=O)NC(=O)c1ccc(-n2ccc(OCC(C)(C)C(F)(F)F)n2)nc1N1C[C@@H](C)CC1(C)C : 1

###

Answer each item with its documented CLint scaled.
- protocolNotes: Intrinsic clearance in rat liver microsomes by HPLC-MS/MS analysis
- Assay type: ADME, Microsome
- conditionSet: read-out: CLH (converted)
Please answer in the form of a number followed by its unit of measurement.

Documented CLint scaled of CC(O)CNC(=O)c1ncc(S(=O)(=O)N2CCC(OC(F)(F)F)CC2)cc1N (stereo not drawn) : 133 mL/min/kg

Documented CLint scaled of Nc1cc(S(=O)(=O)c2ccccc2OC(F)(F)F)cnc1C(=O)NC[C@@H](O)C(F)(F)F : 45 mL/min/kg

Documented CLint scaled of C[C@H](O)CNC(=O)c1ncc(S(=O)(=O)c2ccc(OC(F)(F)F)cc2)cc1N : 20 mL/min/kg

###

- measuredTarget: Cystic fibrosis transmembrane conductance regulator (Homo sapiens, UniProt P13569, F508DEL)
- Sequence (P13569 as listed by the source): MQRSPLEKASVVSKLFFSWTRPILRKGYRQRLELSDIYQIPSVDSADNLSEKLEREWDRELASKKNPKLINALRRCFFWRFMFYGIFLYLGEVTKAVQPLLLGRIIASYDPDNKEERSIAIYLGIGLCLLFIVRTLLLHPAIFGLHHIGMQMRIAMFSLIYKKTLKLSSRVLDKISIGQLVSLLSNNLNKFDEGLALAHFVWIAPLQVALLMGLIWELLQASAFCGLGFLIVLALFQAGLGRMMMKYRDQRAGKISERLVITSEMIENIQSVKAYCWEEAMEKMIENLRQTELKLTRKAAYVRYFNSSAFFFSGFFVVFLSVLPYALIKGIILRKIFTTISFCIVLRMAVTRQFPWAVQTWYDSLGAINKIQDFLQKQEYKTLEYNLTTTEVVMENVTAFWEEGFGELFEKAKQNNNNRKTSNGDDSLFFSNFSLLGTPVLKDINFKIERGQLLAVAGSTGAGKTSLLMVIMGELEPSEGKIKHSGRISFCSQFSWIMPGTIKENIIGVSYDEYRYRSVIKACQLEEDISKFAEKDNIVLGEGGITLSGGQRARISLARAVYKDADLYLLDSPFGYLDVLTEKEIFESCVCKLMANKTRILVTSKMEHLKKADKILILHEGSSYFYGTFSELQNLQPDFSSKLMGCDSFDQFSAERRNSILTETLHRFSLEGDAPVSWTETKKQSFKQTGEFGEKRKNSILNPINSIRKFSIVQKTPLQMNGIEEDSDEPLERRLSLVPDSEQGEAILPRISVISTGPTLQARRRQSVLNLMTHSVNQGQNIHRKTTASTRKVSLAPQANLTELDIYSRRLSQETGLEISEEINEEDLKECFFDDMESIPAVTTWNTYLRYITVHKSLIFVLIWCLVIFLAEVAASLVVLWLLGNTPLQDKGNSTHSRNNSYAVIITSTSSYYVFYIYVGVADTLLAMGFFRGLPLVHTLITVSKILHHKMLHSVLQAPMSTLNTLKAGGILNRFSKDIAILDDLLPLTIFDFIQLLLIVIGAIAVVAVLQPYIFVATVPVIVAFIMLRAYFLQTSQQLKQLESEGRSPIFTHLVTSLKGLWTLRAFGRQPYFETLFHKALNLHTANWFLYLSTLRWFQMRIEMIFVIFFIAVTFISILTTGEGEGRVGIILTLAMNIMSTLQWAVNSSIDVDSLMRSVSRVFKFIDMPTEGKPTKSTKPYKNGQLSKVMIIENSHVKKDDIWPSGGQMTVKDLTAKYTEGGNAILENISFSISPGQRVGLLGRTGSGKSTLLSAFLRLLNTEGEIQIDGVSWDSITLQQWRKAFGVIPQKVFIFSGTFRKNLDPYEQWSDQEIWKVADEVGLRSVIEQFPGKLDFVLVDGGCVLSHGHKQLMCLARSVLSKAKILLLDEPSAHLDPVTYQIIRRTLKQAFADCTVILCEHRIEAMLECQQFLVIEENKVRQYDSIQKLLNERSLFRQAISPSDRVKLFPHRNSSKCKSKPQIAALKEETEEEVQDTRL
- protocolNotes: Activation of CFTR F508del mutant (unknown origin)
measurementKind: EC50 (nM)
The reply should contain only the number, in nM.

Documented EC50 of C[C@@H]1CN(c2nc(-n3ccc(OCC(C)(C)C)n3)ccc2C(=O)NS(=O)(=O)c2cccnc2N)C(C)(C)C1 : 60

Documented EC50 of Cc1ccc(-c2cccc(C(F)(F)F)c2)c(OC2(C(=O)NS(=O)(=O)c3cccc(N4CCC(N)(C(F)(F)F)CC4)n3)CC2)c1 : 80

Documented EC50 of CCc1ccccc1-c1nc(NS(=O)(=O)c2cccc(N(CC)CCCC(=O)O)n2)ccc1C(F)(F)F : 4

Documented EC50 of Nc1cc(S(=O)(=O)c2ccc(C(F)(F)F)cc2)cnc1-c1nnc(CO)o1 : 1.6

Documented EC50 of Nc1cc(S(=O)(=O)c2ccc(OC(F)(F)F)cc2)cnc1-c1nnc(CO)o1 : 5.6

Documented EC50 of CC(O)(c1nnc(-c2ncc(S(=O)(=O)c3ccc(OC(F)(F)F)cc3)cc2N)o1)C(F)(F)F (stereo not drawn) : 1.8

###

- protocolNotes: Lipophilicity, logP of compound
- Assay type: physicochemical
- conditionSet: octanol/water
Answer each item with its documented logP.
Form rule: numeric answer, no unit written next to it.

Documented logP of CC1(C)Cc2c(sc(NC(=O)c3ccn[nH]3)c2C(N)=O)C(C)(C)O1 : 3.22

Documented logP of CC(C)(C)c1cc(C(C)(C)C)c(NC(=O)c2c[nH]c3ccccc3c2=O)cc1O : 6.34

###

- measuredTarget: Cystic fibrosis transmembrane conductance regulator (Homo sapiens, UniProt P13569, F508DEL)
- protocolNotes: Potentiation of CFTR F508del mutant (unknown origin) expressed in NIH3T3 cells
- Format: cell-based
Label 1 (yes) when EC50 is strictly below 100 nM; at or above that, label 0 (no).

-- ask Determine if Cc1nn(C)cc1S(=O)(=O)NC(=O)c1ccc(-n2ccc(OCC3(C(F)(F)F)CCC3)n2)nc1N1C[C@@H](C)CC1(C)C shows EC50 strictly lower than 100 nM.
-- reply 0 (no)

-- ask Determine if Cc1nn(C)c(C)c1S(=O)(=O)NC(=O)c1ccc(-n2ccc(OCC(C)(C)C(F)(F)F)n2)nc1N1C[C@@H](C)CC1(C)C shows EC50 strictly lower than 100 nM.
-- reply 1 (yes)

-- ask Determine if Cc1nn(C)cc1S(=O)(=O)NC(=O)c1ccc(-n2ccc(OCC3(C(F)(F)F)CC3)n2)nc1N1C[C@@H](C)CC1(C)C shows EC50 strictly lower than 100 nM.
-- reply 0 (no)

-- ask Determine if Cc1nn(C)cc1S(=O)(=O)NC(=O)c1ccc(-n2ccc(OCC(C)(C)C(F)(F)F)n2)nc1N1C[C@@H](C)CC1(C)C [ELEXACAFTOR] shows EC50 strictly lower than 100 nM.
-- reply 1 (yes)

-- ask Determine if Cc1nn(C)cc1S(=O)(=O)NC(=O)c1ccc(-n2ccc(OCCC3(C(F)(F)F)CC3)n2)nc1N1C[C@@H](C)CC1(C)C shows EC50 strictly lower than 100 nM.
-- reply 0 (no)

-- ask Determine if Cc1c(S(=O)(=O)NC(=O)c2ccc(-n3ccc(OCC(C)(C)C(F)(F)F)n3)nc2N2C[C@@H](C)CC2(C)C)cnn1C shows EC50 strictly lower than 100 nM.
-- reply 0 (no)

###

Answer each item with its documented Vd.
- protocolNotes: Volume of distribution at steady state in rat at 1 mg/kg, iv
- Format: ADME, organism-based
- conditionSet: in vivo, read-out: Vdss
The reply should contain only the number, in L/kg.

Documented Vd of COc1nc(C(=O)NC[C@](C)(O)C(F)(F)F)c(N)cc1C(F)(F)F : 3

Documented Vd of C[C@](O)(CNC(=O)c1nc(Br)c(C(F)(F)F)cc1N)C(F)(F)F : 6.5

Documented Vd of C[C@](O)(CNC(=O)c1nc(C(F)(F)F)c(C(F)(F)F)cc1N)C(F)(F)F : 6.4

###

- measuredTarget: Cystic fibrosis transmembrane conductance regulator (Homo sapiens, UniProt P13569, F508DEL)
- protocolNotes: Activation of CFTR F508del mutant (unknown origin)
Answer each item with its documented pEC50.
Here pEC50 is given on a logarithmic scale as minus log10 of the concentration in mol/L.

Documented pEC50 of CC(C)(CO)CN1CCCCCc2ccccc2-c2nc(ccc2C(F)(F)F)NS(=O)(=O)c2cccc1n2 : 8.52

Documented pEC50 of COc1ccc(C)cc1[C@]1(C(=O)NS(=O)(=O)c2cccc3nc(C)ccc23)C[C@@H]1c1cnc(C(C)C)cn1 : 7.52

Documented pEC50 of COc1ccc(C)cc1[C@]1(C(=O)NS(=O)(=O)c2cccc3nc(C)ccc23)C[C@@H](c2ccccc2)CO1 : 7.52

Documented pEC50 of Cc1ccc(C2CCCCC2)c(OC2(C(=O)NS(=O)(=O)c3cccc(N4CCC(N)(C(F)(F)F)CC4)n3)CC2)c1 : 8.40

Documented pEC50 of C[C@@H]1CN(c2nc(-n3ccc(OCC4(C(F)(F)F)CCC4)n3)ccc2C(=O)NS(=O)(=O)c2ccccc2)C(C)(C)C1 : 7.40

Documented pEC50 of CCOc1cccc([C@H]2C[C@@]2(C(=O)NS(=O)(=O)c2cccc3nc(C)ccc23)c2cc(C)ccc2OC)n1 : 8.30

Documented pEC50 of CC1(C)Cc2c(sc(NC(=O)[C@@H](O)C(C)(C)C)c2C(N)=O)C(C)(C)O1 : 6.90

Documented pEC50 of CC1(C)Cc2c(sc(NC(=O)[C@H](O)C(C)(C)C)c2C(N)=O)C(C)(C)O1 : 8.52

Documented pEC50 of CCOc1cccc([C@@H]2C[C@]2(C(=O)NS(=O)(=O)c2cccc3nc(C)ccc23)c2cc(C)ccc2OC)n1 : 7.05

Documented pEC50 of CC(C)(CN1CCCCCCc2ccccc2-c2nc(ccc2C(F)(F)F)NS(=O)(=O)c2cccc1n2)C(=O)O : 7.10

Documented pEC50 of C[C@@H]1CN(c2nc(-n3ccc(OCCC4(C(F)(F)F)CC4)n3)ccc2C(=O)NS(=O)(=O)c2cccc(F)c2)C(C)(C)C1 : 7.30

Documented pEC50 of CC(C)(CN1CCCCCc2ccccc2-c2nc(ccc2C(F)(F)F)NS(=O)(=O)c2cccc1n2)C(=O)O : 8.40

Documented pEC50 of Cc1ccc(C2CCCCC2)c(OC2(C(=O)NS(=O)(=O)c3cccc(N4CCOC[C@@H]4C)n3)CC2)c1 : 7.10

Documented pEC50 of CC(O)CNC(=O)c1ncc(S(=O)(=O)N2CCC(OC(F)(F)F)CC2)cc1N (configuration not stated) : 8.30

Documented pEC50 of Cc1ccccc1-c1nc(NS(=O)(=O)c2cccc(N3CCC[C@H](CC(=O)O)C3)n2)ccc1C(F)(F)F : 7.00
